target: SARS-CoV-2 spike receptor binding domain (RBD), wild type (SARS-CoV-2, UniProt P0DTC2 319-539); test: ELISA on coated RBD protein
Please respond with reported EC50 for every item in the list.
Numbers only here, please. The scale is ng/mL.

Prompt: In one line, give reported EC50 of the entry C099 (antibody, V domains shown) VH: EVQLVESGGGLIQPGGSLRLSCAASGITVSSNYMSWVRQAPGKGLEWVSVMYAGGSTFYADSVKGRFTISRDDSKNTLFLQMNSLRAEDTAIYYCARDLYSSGGTDIWGQGTMVTVSS VL: EIVLTQSPGTLSLSPGERATLSCRASQSIGSSYLAWYQQKPGLAPRLLIYGASRRATGIPDKFSGSGSGADFTLTISRLEPEDFAVYYCQQYGSSPGTFGQGTKVEIK .
Response: 2.45

Prompt: Identify EC50 associated with the binder C703 (antibody, V domains shown) VH: EVQLLESGGGLVQPGGSLRLSCAGSGFTFSHYALSWVRQAPGKGLEWVSCISGTGGNSHYADSVKGRFTSSRDNSKNILYLQMNSLRAEDTAVYFCAKGGDFWSGYLIPFDSWGQGTLVTVSS VL: SYELTQSPSVSVAPGKTARITCGGDSIGSKNVHWYQQKPGQAPVLVMYYDNDRPSGIPERFSGYNSGNTATLSISRVEAGDEADYYCLVWDGSGDPWVFGGGTKLTVL
Response: 10.9

Prompt: Return EC50 (reported value) for this binder: C052 (antibody, V domains shown) VH: EVQLVESGGGLIRPGGSLRLSCAASGFSVSNNYMSWVRQAPGKGLEWVSVIYSGGTTYYADSVKGRFNISRDNSKNTVYLQMNSLRAEDTAVYYCAREGDVEGYYDFWSGYSRDRYYFDYWGQGALVTVSS VL: QSALTQPASVSGSPGQSITISCTGTSSDVGGYNYVSWYQQHPGKAPKLMIYDVSNRPSGVSNRFSGSKSGNTASLTISGLQAEDEADYYCNSYTSNNTRVFGTGTKVTVL
Response: 1.23
